- System: Acinetobacter baumannii FADDI-AB030
- ASSAY OVERVIEW: microbe, parasite or virus in culture
- Type: cell-based
- MEASUREMENT CONDITIONS: FADDI-AB030
Where a SMILES comes first, the peptide text is derived from it. Bridges are numbered along the chain shown (N, C = ends). [ ]: non-standard residue; d: D form. The star is where a group is joined. X15 = O=C(c1ccc(Cl)nc1Cl)*; X65 = O=C(c1cc(Br)ccn1)*; Dab = NCC[C@H](N)C(=O)O; Abu = CC[C@H](N)C(=O)O; Dap = NC[C@H](N)C(=O)O
Documented Minimum inhibitory concentration across a set of molecules
PROPERTY NAME: Minimum inhibitory concentration (µg/mL)

MOLECULE	VALUE REPORTED
CC[C@@H]1NC(=O)[C@@H](CC(C)C)NC(=O)[C@H](CCN)NC(=O)[C@@H](NC(=O)[C@H](CN)NC(=O)[C@@H](NC(=O)[C@H](CCN)NC(=O)c2cc(Br)ccn2)[C@@H](C)O)CCNC(=O)[C@H]([C@@H](C)O)NC(=O)[C@H](CCN)NC(=O)[C@H](CCN)NC1=O [Compound 102] (X65-[Dab]T[Dap][Dab][Dab][dL][Abu][Dab][Dab]T; lactam 4-C)	0.25
CC[C@@H]1NC(=O)[C@@H](CC(C)C)NC(=O)[C@H](CCN)NC(=O)[C@@H](NC(=O)[C@H](CN)NC(=O)[C@@H](NC(=O)[C@H](CCN)NC(=O)c2ccc(Cl)nc2Cl)[C@@H](C)O)CCNC(=O)[C@H]([C@@H](C)O)NC(=O)[C@H](CCN)NC(=O)[C@H](CCN)NC1=O [Compound 7] (X15-[Dab]T[Dap][Dab][Dab][dL][Abu][Dab][Dab]T; lactam 4-C)	0.5

====

Catalogue of molecules with associated Minimum inhibitory concentration
- Tested on: Acinetobacter baumannii FADDI-AB030
- ASSAY OVERVIEW: microbe, parasite or virus in culture
- Format: cell-based
- MEASUREMENT CONDITIONS: FADDI-AB030
Where a SMILES comes first, the peptide text is derived from it. Bridges are numbered along the chain shown (N, C = ends). [ ]: non-standard residue; d: D form. The star is where a group is joined. X1 = O=C(c1ncc(Cl)cc1Cl)*; X30 = O=C(c1ccc(Cl)cn1)*; Dab = NCC[C@H](N)C(=O)O; Abu = CC[C@H](N)C(=O)O; Dap = NC[C@H](N)C(=O)O
PROPERTY NAME: Minimum inhibitory concentration (µg/mL)

MOLECULE	VALUE REPORTED
CC(C)C[C@H]1NC(=O)[C@H](CCN)NC(=O)[C@@H](NC(=O)[C@H](CN)NC(=O)[C@@H](NC(=O)[C@H](CCN)NC(=O)c2ncc(Cl)cc2Cl)[C@@H](C)O)CCNC(=O)[C@H]([C@@H](C)O)NC(=O)[C@H](CCN)NC(=O)[C@H](CCN)NC(=O)[C@H](C(C)C)NC1=O [Compound 13] (X1-[Dab]T[Dap][Dab][Dab][dL]V[Dab][Dab]T; lactam 4-C)	0.5
CC[C@@H]1NC(=O)[C@@H](CC(C)C)NC(=O)[C@H](CCN)NC(=O)[C@@H](NC(=O)[C@H](CN)NC(=O)[C@@H](NC(=O)[C@H](CCN)NC(=O)c2ccc(Cl)cn2)[C@@H](C)O)CCNC(=O)[C@H]([C@@H](C)O)NC(=O)[C@H](CCN)NC(=O)[C@H](CCN)NC1=O [Compound 37] (X30-[Dab]T[Dap][Dab][Dab][dL][Abu][Dab][Dab]T; lactam 4-C)	0.5

====

Minimum inhibitory concentration reference
- Tested on: Pseudomonas aeruginosa FADDI-PA01
- Format: cell-based
- MEASUREMENT CONDITIONS: FADDI-
- Method: MICs of the lipopeptides (trifluoroacetic acid salt, TFA) were determined by broth microdilution in cation-adjusted Mueller-Hinton broth (CAMHB) (Oxoid Australia, Thebarton, SA, Australia) according to the Clinical and Laboratory Standards Institute protocol (Clinical and Laboratory Standards Institute, Performance standards for antimicrobial susceptibility testing; twentyforth informational supplement M100-S24. Wayne, Pa., 2014). Polymyxin B sulphate was employed as the control. […]
Where a SMILES comes first, the peptide text is derived from it. Bridges are numbered along the chain shown (N, C = ends). [ ]: non-standard residue; d: D form. The star is where a group is joined. Propanoyl(3-indol-3-yl) = O=C(CCc1c[nH]c2ccccc12)*; X58 = Cn1cc(CC(=O)*)c2ccccc21; Dab = NCC[C@H](N)C(=O)O; X70 = O=C(c1csc(Br)c1)*; Abu = CC[C@H](N)C(=O)O; Dap = NC[C@H](N)C(=O)O

COMPOUND	VALUE RELATION SIGN	Minimum inhibitory concentration, µg/mL
CC[C@@H]1NC(=O)[C@@H](CC(C)C)NC(=O)[C@H](CCN)NC(=O)[C@@H](NC(=O)[C@H](CN)NC(=O)[C@@H](NC(=O)[C@H](CCN)NC(=O)c2csc(Br)c2)[C@@H](C)O)CCNC(=O)[C@H]([C@@H](C)O)NC(=O)[C@H](CCN)NC(=O)[C@H](CCN)NC1=O [Compound 101] (X70-[Dab]T[Dap][Dab][Dab][dL][Abu][Dab][Dab]T; lactam 4-C)	=	0.25
CC[C@@H]1NC(=O)[C@@H](CC(C)C)NC(=O)[C@H](CCN)NC(=O)[C@@H](NC(=O)[C@H](CN)NC(=O)[C@@H](NC(=O)[C@H](CCN)NC(=O)Cc2cn(C)c3ccccc23)[C@@H](C)O)CCNC(=O)[C@H]([C@@H](C)O)NC(=O)[C@H](CCN)NC(=O)[C@H](CCN)NC1=O [Compound 62] (X58-[Dab]T[Dap][Dab][Dab][dL][Abu][Dab][Dab]T; lactam 4-C)	=	1
CC[C@@H]1NC(=O)[C@@H](CC(C)C)NC(=O)[C@H](CCN)NC(=O)[C@@H](NC(=O)[C@H](CN)NC(=O)[C@@H](NC(=O)[C@H](CCN)NC(=O)CCc2c[nH]c3ccccc23)[C@@H](C)O)CCNC(=O)[C@H]([C@@H](C)O)NC(=O)[C@H](CCN)NC(=O)[C@H](CCN)NC1=O [Compound 104] ({Propanoyl(3-indol-3-yl)}-[Dab]T[Dap][Dab][Dab][dL][Abu][Dab][Dab]T; lactam 4-C)	<	0.125

====

- Test system: Klebsiella pneumoniae Kp BM1
- Format: cell-based
- MEASUREMENT CONDITIONS: Kp BM1
Where a SMILES comes first, the peptide text is derived from it. Bridges are numbered along the chain shown (N, C = ends). [ ]: non-standard residue; d: D form. The star is where a group is joined. X16 = O=C(c1cnc(-c2ccccc2)nc1)*; X32 = O=C(c1cnc(Cl)c(Cl)c1)*; X17 = O=C(c1ncc(Br)cc1Cl)*; X36 = O=C(c1ncc(Br)cc1Br)*; X33 = O=C(c1cncc(Br)c1)*; X59 = Cn1c(Br)ccc1C(=O)*; Dab = NCC[C@H](N)C(=O)O; Abu = CC[C@H](N)C(=O)O; Dap = NC[C@H](N)C(=O)O
Below, each of the molecules is paired with its reported Minimum inhibitory concentration value.
PROPERTY NAME: Minimum inhibitory concentration (µg/mL)

MOLECULE	STUDY TARGET	VALUE RELATION SIGN	VALUE REPORTED
CC[C@@H]1NC(=O)[C@@H](CC(C)C)NC(=O)[C@H](CCN)NC(=O)[C@@H](NC(=O)[C@H](CN)NC(=O)[C@@H](NC(=O)[C@H](CCN)NC(=O)c2cnc(-c3ccccc3)nc2)[C@@H](C)O)CCNC(=O)[C@H]([C@@H](C)O)NC(=O)[C@H](CCN)NC(=O)[C@H](CCN)NC1=O [Compound 73] (X16-[Dab]T[Dap][Dab][Dab][dL][Abu][Dab][Dab]T; lactam 4-C)	Klebsiella pneumoniae Kp BM1	<	0.125
CC(C)C[C@H]1NC(=O)[C@H](CCN)NC(=O)[C@@H](NC(=O)[C@H](CN)NC(=O)[C@@H](NC(=O)[C@H](CCN)NC(=O)c2ncc(Br)cc2Br)[C@@H](C)O)CCNC(=O)[C@H]([C@@H](C)O)NC(=O)[C@H](CCN)NC(=O)[C@H](CCN)NC(=O)[C@H]([C@@H](C)O)NC1=O [Compound 29] (X36-[Dab]T[Dap][Dab][Dab][dL]T[Dab][Dab]T; lactam 4-C)	Klebsiella pneumoniae Kp BM1	=	0.5
CC[C@@H]1NC(=O)[C@@H](CC(C)C)NC(=O)[C@H](CCN)NC(=O)[C@@H](NC(=O)[C@H](CN)NC(=O)[C@@H](NC(=O)[C@H](CCN)NC(=O)c2ccc(Br)n2C)[C@@H](C)O)CCNC(=O)[C@H]([C@@H](C)O)NC(=O)[C@H](CCN)NC(=O)[C@H](CCN)NC1=O [Compound 93] (X59-[Dab]T[Dap][Dab][Dab][dL][Abu][Dab][Dab]T; lactam 4-C; N-terminus assumed)	Klebsiella pneumoniae Kp BM1	=	0.25
CC[C@@H]1NC(=O)[C@@H](CC(C)C)NC(=O)[C@H](CCN)NC(=O)[C@@H](NC(=O)[C@H](CN)NC(=O)[C@@H](NC(=O)[C@H](CCN)NC(=O)c2cncc(Br)c2)[C@@H](C)O)CCNC(=O)[C@H]([C@@H](C)O)NC(=O)[C@H](CCN)NC(=O)[C@H](CCN)NC1=O [Compound 23] (X33-[Dab]T[Dap][Dab][Dab][dL][Abu][Dab][Dab]T; lactam 4-C)	Klebsiella pneumoniae Kp BM1	=	0.25
CC[C@@H]1NC(=O)[C@@H](CC(C)C)NC(=O)[C@H](CCN)NC(=O)[C@@H](NC(=O)[C@H](CN)NC(=O)[C@@H](NC(=O)[C@H](CCN)NC(=O)c2ncc(Br)cc2Cl)[C@@H](C)O)CCNC(=O)[C@H]([C@@H](C)O)NC(=O)[C@H](CCN)NC(=O)[C@H](CCN)NC1=O [Compound 33] (X17-[Dab]T[Dap][Dab][Dab][dL][Abu][Dab][Dab]T; lactam 4-C)	Klebsiella pneumoniae Kp BM1	<	0.125
CC[C@@H]1NC(=O)[C@@H](CC(C)C)NC(=O)[C@H](CCN)NC(=O)[C@@H](NC(=O)[C@H](CN)NC(=O)[C@@H](NC(=O)[C@H](CCN)NC(=O)c2cnc(Cl)c(Cl)c2)[C@@H](C)O)CCNC(=O)[C@H]([C@@H](C)O)NC(=O)[C@H](CCN)NC(=O)[C@H](CCN)NC1=O [Compound 5] (X32-[Dab]T[Dap][Dab][Dab][dL][Abu][Dab][Dab]T; lactam 4-C)	Klebsiella pneumoniae Kp BM1	<	0.25

Values were extracted from patent US11225505B2.
